B1: Pistol ribozyme (parent)
chain: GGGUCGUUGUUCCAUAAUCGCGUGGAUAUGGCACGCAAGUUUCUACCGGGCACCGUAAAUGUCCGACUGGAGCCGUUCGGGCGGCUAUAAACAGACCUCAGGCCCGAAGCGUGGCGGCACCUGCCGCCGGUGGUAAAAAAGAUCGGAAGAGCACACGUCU

variants of: B1; assay: aptazyme ON/OFF ratio, guanine; higher = stronger switching; co-transcriptional cleavage with and without guanine
Provide the recorded aptazyme ON/OFF ratio for the entries that follow.
I'd appreciate a reply containing only the number, no unit.

Request: Note aptazyme ON/OFF ratio for the variant shown: U7C U8C U10G U11C C13U
Response: 1.16

Request: Report measured aptazyme ON/OFF ratio; entry is U7G G9C U10C U11C C12A C13U
Response: 1.03

Request: Report measured aptazyme ON/OFF ratio; entry is U7C U8C G9A U10G U11C C12G C13U
Response: 1.19

Request: For the variant U8C G9U U10G U11C C12G C13A , give its reported aptazyme ON/OFF ratio.
Response: 1.22

Request: Consider the variant U7G U8G G9U U10A U11C C12G C13G and give its recorded aptazyme ON/OFF ratio.
Response: 1.09

Request: Indicate the recorded aptazyme ON/OFF ratio value for this variant: U7A U8C G9C U10G U11A C12U C13U
Response: 1.03
